Property: Population Apoptotic (%); scope: individual compounds
System: HEK-293T
experiment: Multiplex assay against HEK293T
Type: toxicity, cell-based
experimental_context: human, 12 h, 10 µM, compound concentration 10 uM, replicate 1
Express your answer in %, writing the number without its unit.

> print(dat)
                                        mol  target.entity  value
1  CC(C)CC(=O)Nc1[nH]nc2c1CN(C(=O)C1CCN(C)CC1)C2(C)C       HEK-293T     21
2  CNC(=O)c1ccc(Nc2ncc(C(F)(F)F)c(NCc3nccnc3N(C)S(C)(=O)=O)n2)cc1       HEK-293T     27
3  CN1CCN(Cc2ccc(Nc3ncc(Cl)c(Nc4ccccc4S(=O)(=O)N(C)C)n3)cc2)CC1       HEK-293T     62

Could you now consider this next compound?
Supply recorded Population Apoptotic (%) for `Cc1nc(N2CC[C@H](O)C2)ncc1-c1cc(C(F)(F)F)cc2[nH]ncc12` here. 24

----------
Property: Population Hoechst High Intensity Objects (%); scope: individual compounds
System: U2OS
experiment: Multiplex assay against U2OS
Type: toxicity, cell-based
experimental_context: human, 12 h, 1 µM, compound concentration 1 uM, replicate 1
# number then unit; no other words

Supply recorded Population Hoechst High Intensity Objects (%) for `CC(C)c1noc(N2CCC(COc3ccc(-c4ccc(S(C)(=O)=O)cc4)nc3)CC2)n1` here. 17%

Supply recorded Population Hoechst High Intensity Objects (%) for `C=CC(=O)Nc1cccc(Sc2nc(Nc3ccc(N4CCN(C)CC4)cc3)ncc2Cl)c1` here. 10%

Supply recorded Population Hoechst High Intensity Objects (%) for `COC(=O)C1=C(C)NC(C)=C(C(=O)OCCCN2CCC(c3ccccc3)(c3ccccc3)CC2)[C@H]1c1cccc([N+](=O)[O-])c1` here. 11%

Supply recorded Population Hoechst High Intensity Objects (%) for `Cc1ccc(C)c(Oc2ccncc2C(=O)N2CCN(C3CC3)c3ccccc32)c1` here. 7%

Supply recorded Population Hoechst High Intensity Objects (%) for `CCc1ccc(OCc2ccccc2C(=O)Nc2ccc3nc(C)cc(N)c3c2)cc1.Cl` here. 10%

Supply recorded Population Hoechst High Intensity Objects (%) for `C=CC(=O)Nc1ccc2[nH]c(=O)n(C3CCN(Cc4ccc(-c5nc6cc[nH]c(=O)c6cc5-c5ccccc5)cc4)CC3)c2c1` here. 3%

Supply recorded Population Hoechst High Intensity Objects (%) for `O=c1cc(N2CCOCC2)oc2c(-c3cccc4c3sc3ccccc34)cccc12` here. 7%

Supply recorded Population Hoechst High Intensity Objects (%) for `CN1CCN(Cc2ccc(Nc3ncc(Cl)c(Nc4ccccc4S(=O)(=O)N(C)C)n3)cc2)CC1` here. 11%

----------
Tested on: U2OS
experiment: Multiplex assay against U2OS
Assay type: toxicity, cell-based
experimental_context: human, 24 h, 1 µM, compound concentration 1 uM, replicate 2
Each entry gets Not satisfied if its Population Fragmented Nuclei (%) stays under 9%, and Satisfied if its Population Fragmented Nuclei (%) is 9% or above.

Use these answered entries as a reference point.
> print(dat)
                                   molecule  class.assignment
1  COc1cc(Nc2nccc(-c3cnn4nc(OC)ccc34)n2)cc(C(F)(F)F)c1         Satisfied
2  Cc1c[nH]c2nccc(Oc3c(F)cc(Nc4cc(Cl)nc(N)n4)cc3F)c12 [BAY-549]     Not satisfied
3  CC(C)(C)NC[C@H](O)COc1nsnc1N1CCOCC1 [TIMOLOL]         Satisfied
4  O=c1cc(N2CCOCC2)oc2c(-c3cccc4c3sc3ccccc34)cccc12         Satisfied
5  Cc1ccc2c(c1)c1c(n2CCc2ccc(C)nc2)CCN(C)C1 [LATREPIRDINE]         Satisfied

Moving on to the next molecule.
Please tell me: is the molecule CCc1nn(CCCN2CCN(c3cccc(Cl)c3)CC2)c(=O)n1CCOc1ccccc1.Cl [NEFAZODONE HYDROCHLORIDE] at or over 9% in terms of Population Fragmented Nuclei (%)? Not satisfied

----------
Tested on: Fibroblast
experiment: Multiplex assay against human fibroblast
Assay type: toxicity, cell-based
experimental_context: 12 h, 10 µM, compound concentration 10 uM, replicate 2
Property: Population Mitotic Cells (%); scope: individual molecules
Express your answer in %, writing the number without its unit.

Recorded Population Mitotic Cells (%), per entry:
> print(dat)
                                   molecule  units.label  value
1  CCc1nn(CCCN2CCN(c3cccc(Cl)c3)CC2)c(=O)n1CCOc1ccccc1.Cl [NEFAZODONE HYDROCHLORIDE]            %     30
2  O=c1[nH]c2ccccc2n1C1CCN(Cc2ccc(-c3[nH]c4cc5ncnc5cc4nc3-c3ccccc3)cc2)CC1            %     30

Could you now consider this next molecule?
Supply recorded Population Mitotic Cells (%) for COc1cc2ncn(-c3cc(OCc4ccccc4C(F)(F)F)c(C(N)=O)s3)c2cc1OC [GW843682X] here. 50

----------
Property: Total Cell Count; scope: individual molecules
Test system: Fibroblast
experiment: Multiplex assay against human fibroblast
Format: toxicity, cell-based
experimental_context: 48 h, 10 µM, compound concentration 10 uM, replicate 1
Reply with just the number.

> print(dat)
                                        mol  value
1  CCOC(=O)Nc1cc(-c2ccc(C)c(NS(C)(=O)=O)c2)nn2c(C)nnc12    105
2  CCc1ccc(OCc2ccccc2C(=O)Nc2ccc3nc(C)cc(N)c3c2)cc1.Cl    146

Supply recorded Total Cell Count for `CC(C)(C)NC[C@H](O)COc1nsnc1N1CCOCC1` here. 118

----------
Property: Population Normal (%); scope: individual compounds
Test system: U2OS
experiment: Multiplex assay against U2OS
Type: toxicity, cell-based
experimental_context: human, 48 h, 10 µM, compound concentration 10 uM, replicate 1
Express your answer in %, writing the number without its unit.

> print(dat)
                                   compound  target.entity  units.label  value
1  Cl.O=C(O)c1cc(-c2ccc(C3CCNCC3)cc2)c2ccc(-c3ccc(C(F)(F)F)cc3)cc2c1           U2OS            %     94
2  Cc1ccc2c(c1)c1c(n2CCc2ccc(C)nc2)CCN(C)C1 [LATREPIRDINE]           U2OS            %     93
3  CCOC(=O)Nc1cc(-c2ccc(C)c(NS(C)(=O)=O)c2)nn2c(C)nnc12           U2OS            %     98

Supply recorded Population Normal (%) for O=C(c1cc2c(cc1F)OC(c1ccc(F)cc1)(c1ccc(Cl)cc1Cl)O2)N1CCOCC1 (stereo unspecified) here. 85

Supply recorded Population Normal (%) for `CC(C)OC(=O)N1CCC(Oc2ncnc3c2cnn3-c2ccc(S(C)(=O)=O)cc2F)CC1` here. 97

Supply recorded Population Normal (%) for `CN1CCN(Cc2ccc(Nc3ncc(Cl)c(Nc4ccccc4S(=O)(=O)N(C)C)n3)cc2)CC1` here. 69

----------
Test system: Fibroblast
experiment: Incucyte cell viability with human fibroblast; further: filed as whole numbers so only -1 and 0 and 1 occur
Format: toxicity, cell-based
experimental_context: 24 h, 10 µM, compound concentration 10 uM, replicate number 1, timepoint 24 hours
Property: Growth Rate; scope: individual molecules
Reply with just the number.

> print(dat)
                                   molecule  value
1  O=C(O)C1CN(Cc2ccc(-c3nc4cc(Cc5ccccc5F)ccc4s3)c(F)c2)C1      1
2  Cl.Cl.Cl.c1ccc(N2CCN(Cc3nc4ccccc4[nH]3)CC2)nc1      1
3  Nc1ncnc2c1ccn2[C@@H]1O[C@H]([C@H](O)c2ccccc2)[C@@H](O)[C@H]1O      1
4  C[C@H](NC(=O)c1cnc2n1[C@](C)(Cc1ccc(C#N)cc1)C(=O)N2c1cc(Cl)c(F)c(Cl)c1)C(=O)NC1(c2ccccn2)CC1      1
5  O=C(NCc1ncc(C(F)(F)F)cc1Cl)c1ccc2c(c1)C1(CCS(=O)(=O)CC1)[C@@H](C1CC1)N2S(=O)(=O)c1ccc(F)cc1      1

State Growth Rate (Fibroblast) of `CNCc1ccccc1-c1csc([C@@H](C)Nc2nc(C)nc3cc(OC)c(OC)cc23)c1` . 0

State Growth Rate (Fibroblast) of `CCOC(=O)CCNc1cc(N2CCc3ccccc3CC2)nc(-c2cccnc2)n1` . 1

State Growth Rate (Fibroblast) of `COC(=O)C1=C(C)NC(C)=C(C(=O)OCCCN2CCC(c3ccccc3)(c3ccccc3)CC2)[C@H]1c1cccc([N+](=O)[O-])c1` . 0

State Growth Rate (Fibroblast) of `O=S1(=O)c2cccc3cccc(c23)N1CCCN1CCN(c2ccc(F)cc2)CC1` . 1

State Growth Rate (Fibroblast) of Cc1ccccc1C(=O)Nc1ccc(C(=O)N2CCCC(O)c3cc(Cl)ccc32)c(C)c1 (stereo not given) . 1
